- TEST_SYSTEM: Amine oxidase [flavin-containing] A (Homo sapiens, UniProt P21397)
- Sequence (P21397 whole entry): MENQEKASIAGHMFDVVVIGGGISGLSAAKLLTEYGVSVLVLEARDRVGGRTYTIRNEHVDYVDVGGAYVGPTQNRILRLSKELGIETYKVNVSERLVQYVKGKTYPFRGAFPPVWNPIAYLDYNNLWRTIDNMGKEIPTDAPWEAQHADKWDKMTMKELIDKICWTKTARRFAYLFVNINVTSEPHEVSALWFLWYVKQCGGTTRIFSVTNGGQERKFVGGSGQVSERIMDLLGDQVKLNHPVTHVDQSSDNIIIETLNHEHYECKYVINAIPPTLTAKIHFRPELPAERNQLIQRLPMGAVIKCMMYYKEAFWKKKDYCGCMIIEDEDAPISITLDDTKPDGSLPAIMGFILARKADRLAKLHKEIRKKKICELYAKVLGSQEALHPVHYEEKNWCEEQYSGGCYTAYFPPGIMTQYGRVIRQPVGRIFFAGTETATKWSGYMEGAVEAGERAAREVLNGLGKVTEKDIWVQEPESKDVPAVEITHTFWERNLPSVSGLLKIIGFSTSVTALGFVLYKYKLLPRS
- EXPERIMENT: Competitive inhibition of recombinant human MAO-A using 0.01 to 0.5 mM kynuramine substrate by Lineweaver-Burk plot analysis
QUANTITY_NAME: pKi
The quantity pKi is defined as the negative base-10 logarithm of the molar concentration.

Problem: Consider the compound `O=C1c2ccccc2C(=O)c2c(O)c(O)cc(O)c21` and give its measured pKi.
Result: 6.37

====

- TEST_SYSTEM: UniProt P21397
- EXPERIMENT: Competitive inhibition of recombinant human MAO-A using varying levels of kynuramine substrate after 5 mins by Lineweaver-Burk plot analysis
QUANTITY_NAME: Ki
Please give the number followed by its unit.

Problem: Consider the compound `CNc1ccccc1-c1nc(C(=O)OC)cs1` and give its measured Ki.
Result: 1.84 µM
